Data origin: ChEMBL document CHEMBL1201862

# GI50 listing for each entry below
- Tested on: SN12C
- PROTOCOL DETAILS: NCI tumour cell line growth inhibition, 48 h
Active and inactive are the calls of the source. Rule as the data show it: active = GI50 up to about 1.1 µM and inactive = higher.

Past entries and their recorded results:
COMPOUND	GI50
O=S(=O)(CC(Cl)c1ccccc1)c1nc2ccccc2s1 (stereo unspecified)	10.2 µM (inactive)
N#CCc1cccc(CC#N)c1Br	> 100 µM (inactive)
CC1(C)OC(C(=O)Nc2cc3c4ccccc4ccc3c3ccccc23)C(C(=O)N2CCCCC2)O1 (stereo unspecified)	9.18 µM (inactive)
O=C(NC/C=C/CO)c1ccccc1	> 100 µM (inactive)
CC(C)Cc1ccc(C(C)/C=C2\CCC(CN3CCOCC3)C2=O)cc1 (stereo unspecified)	9.27 µM (inactive)

stdin: Reported GI50, compound N#Cc1c([N+](=O)[O-])cc(C(F)(F)F)cc1[N+](=O)[O-] : ____
stdout: 14.1 µM (inactive)

stdin: Reported GI50, compound FC(F)(Sc1ncccn1)c1nc2ccccc2o1 : ____
stdout: > 100 µM (inactive)

stdin: Reported GI50, compound CC(C)(C)c1ccc(S(=O)(=O)N2C(c3cccc(C4CC[C@@H](C(=O)O)N4S(=O)(=O)c4ccc(C(C)(C)C)cc4)c3)CC[C@H]2C(=O)O)cc1 (stereo partly specified) : ____
stdout: 47.3 µM (inactive)

stdin: Reported GI50, compound Nc1cc(O)c2c(c1O)C(=O)C=CC2=O : ____
stdout: 16.1 µM (inactive)

stdin: Reported GI50, compound COC(=O)C(CC1=C(O)Nc2ccccc2N1)/C(=N/NC(N)=O)C(=O)Nc1ccccc1C (stereo unspecified) : ____
stdout: > 100 µM (inactive)

stdin: Reported GI50, compound [N-]=[N+]=NCC(=O)c1cnc(O)nc1O : ____
stdout: > 100 µM (inactive)

stdin: Reported GI50, compound COc1ccc(OC2OC(CO)C(OCc3ccccc3)C(OCc3ccccc3)C2OCc2ccccc2)cc1 (stereo unspecified) : ____
stdout: 17.5 µM (inactive)

stdin: Reported GI50, compound CCOC(=O)/C(C(=O)Nc1cccc(C(F)(F)F)c1)=C(/N)N1CCOCC1 : ____
stdout: > 100 µM (inactive)

stdin: Reported GI50, compound COc1cc(/C=C2\Sc3scc(-c4cccc([N+](=O)[O-])c4)[n+]3C2=O)cc(OC)c1OC : ____
stdout: 18.1 µM (inactive)

stdin: Reported GI50, compound CCOC(=O)C(=O)/C(=C/N1C(=O)CC(=O)NC1=S)C(=O)OCC : ____
stdout: > 100 µM (inactive)

stdin: Reported GI50, compound CC1(C)N=C(N)N=C(N)N1c1cccc(OCc2cccc([N+](=O)[O-])c2)c1 : ____
stdout: 9.98 µM (inactive)

stdin: Reported GI50, compound COc1ccc([C@@]2(O)c3c(ccc(O)c3OC)[C@H]2OC)c(OC)c1 : ____
stdout: 71.8 µM (inactive)

stdin: Reported GI50, compound O=C(NC(Nc1ccc(F)cc1)(C(F)(F)F)C(F)(F)F)C(C(F)(F)F)C(F)(F)F : ____
stdout: 50.2 µM (inactive)
